# experiment-description: NCI Yeast Anticancer Drug Screen. Data for the rad50 strain (AID 155);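 also: 0% = growth of vehicle-only cultures of the same strain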
# measurement-conditions: S. cerevisiae rad50 strain growth inhibition; at 50.0 µM (retest, dose inferred, filed as 5.0); hits give high values
Compounds without any hit were thinned out: in the full panel of roughly 79,000, 15% have a hit.
Decide using growth inhibition: a value greater than or equal to 90% is satisfied, a smaller one is not satisfied.

Answered examples (4):
compound	assigned-class
O=C(O)C(Br)C(Br)C(=O)Nc1ccc(Cl)c(Cl)c1 (stereo unspecified)	satisfied
Cc1[nH]c2c(C)c3c([nH]c4ccc(Cl)cc43)c(C)c2c(=O)c1C	not satisfied
C/C(=N\NC(=S)N1CCCCCC1)c1cccc2cccnc12	not satisfied
NC1NCCC(=O)N1CCc1c[nH]c2ccccc12 (stereo unspecified)	satisfied

Below: the item to evaluate.
**Query** growth inhibition >= 90% for CN[C@@H](Cc1cccc2ccccc12)C(=O)N[C@@H](CC(C)C)B(O)O ?
**Result** not satisfied

====

Recorded growth inhibition for the following compounds
# experiment-description: NCI Yeast Anticancer Drug Screen. Data for the sgs1 mgt1 strain (AID 161);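 also: 0% = growth of cultures given vehicle only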
# measurement-conditions: S. cerevisiae sgs1 mgt1 strain, at 50.0 µM (retest, dose inferred, filed as 5.0), hits give high values
This is part of a sample that, as a whole, favours compounds with a hit. Of some 79,000 tested, about 15% had one in any assay.
Numbers only; they are read as %.

compound	readout-value
CC(C)(C)c1cc(C(=O)[O-])c([OH2+])c(C(C)(C)C)c1.CC(C)(C)c1cc(C(=O)[O-])c([OH2+])c(C(C)(C)C)c1.[Mn+2]	42

**Query** What does the record list as growth inhibition for CNc1ccc(N=O)cc1 ?
**Result** 57

**Query** What does the record list as growth inhibition for Cn1c(-c2ccccc2)c(CCNC(=O)C2CCC2)c2ccccc21 ?
**Result** 12

**Query** What does the record list as growth inhibition for CCCCCCC1CCC(CCCCCCCC(=O)N2CCN(C)CC2)C(C/C=C/CCCCCCCC(=O)N2CCN(C)CC2)C1CCCCC (stereo not given) ?
**Result** 70

**Query** What does the record list as growth inhibition for Oc1ccccc1C(c1cc2c(cc1O)OCO2)N1CCOCC1 (stereo not given) ?
**Result** 99

**Query** What does the record list as growth inhibition for NCc1cccc(O)c1O ?
**Result** 51

**Query** What does the record list as growth inhibition for CCCCCCCCCCCCCC(=O)CC(=O)c1c(O)cccc1O ?
**Result** -13

**Query** What does the record list as growth inhibition for CC1CC(=O)OC(C(=O)c2ccccc2)N1c1ccc(C(F)(F)F)cc1N (stereo not given) ?
**Result** 38

**Query** What does the record list as growth inhibition for O=C(c1ccc(Cl)cc1)C1OC12C(=O)Nc1c(Cl)cc(Cl)cc12 (stereo not given) ?
**Result** 99

**Query** What does the record list as growth inhibition for O=c1ccc2c(COc3ccc(Cl)cc3Cl)c3ccc(O)cc3oc-2c1 ?
**Result** 12

**Query** What does the record list as growth inhibition for O=c1c2ccccc2sc2c1c(N(CCO)CCO)cc1ccccc12 ?
**Result** 93

**Query** What does the record list as growth inhibition for COc1cc(C(=O)OCC(C)C)ccc1O ?
**Result** 8

**Query** What does the record list as growth inhibition for Cc1ccc(Oc2ccc(C(=O)C(CN(C)C)CN(C)C)cc2)cc1 ?
**Result** 98

**Query** What does the record list as growth inhibition for c1ccc2c(c1)ccc1ncccc12 ?
**Result** 38

**Query** What does the record list as growth inhibition for Cc1ccc2c(c1)-c1c(c3c(c4c1-c1cc(C)ccc1CC4)C(=O)OC3=O)CC2 ?
**Result** 59

**Query** What does the record list as growth inhibition for COc1ccc2c(c1)CC[C@@H]1[C@@H]2CC[C@]2(C)/C(=N/OCCN3CCCC3)CC[C@@H]12 ?
**Result** 96

====

# experiment-description: NCI Yeast Anticancer Drug Screen. Data for the cln2 rad14 strain (AID 165);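 also: 0% = growth equal to vehicle treated cultures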
# measurement-conditions: S. cerevisiae cln2 rad14 strain, at 50.0 µM (retest, dose inferred, filed as 5.0), hits give high values
About 79,000 compounds went through this panel and 15% of them were active in at least one assay; those are over-represented in the sample as a whole. Active and inactive are the calls of the source. Rule as the data show it: active = growth inhibition above about 70%; inactive = the rest.
Recorded growth inhibition for the following compounds

Examples with answers:
compound	growth inhibition
Cc1ccc(C)c(C2CCCCC2O)c1 (stereo not drawn)	-5% (inactive)
O=NN(CCCl)C(=O)NCCSSCCNC(=O)N(CCCl)N=O (tested in a mixture with another compound)	29% (inactive)
Clc1ccc(C(c2ccc(Cl)cc2)c2cncnc2)cc1	98% (active)
CN(C)C(=S)/N=c1\ssc(=S)n1C	4% (inactive)
COc1ccc(N=NN2CCCC2)cc1	56% (inactive)
Clc1cc(Cl)c2cc3cccc[n+]3cc2c1Cl	31% (inactive)
O=C1c2cccc3cccc(c23)C1(Br)Br	95% (active)
COc1ccc(C(=O)c2ccc([N+](=O)[O-])cc2)cc1	-47% (inactive)

**Query** What does the record list as growth inhibition for CN(C)C(N)=NC#N ?
**Result** 54% (inactive)

**Query** What does the record list as growth inhibition for Cc1cc(Cc2ccccc2)ccc1O ?
**Result** 15% (inactive)

**Query** What does the record list as growth inhibition for CCN(CC)CCOC(=O)C1CCCCC1C(=O)C1CCCCC1 (stereo not drawn) ?
**Result** 8% (inactive)

**Query** What does the record list as growth inhibition for O=C(c1ccc(Cl)cc1)C1N=NCC1c1ccccc1 (stereo not drawn) ?
**Result** 59% (inactive)

**Query** What does the record list as growth inhibition for CCCCCCCCCCSCCO ?
**Result** 99% (active)

====

# experiment-description: NCI Yeast Anticancer Drug Screen. Data for the cln2 rad14 strain (AID 165);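 also: 0% = growth equal to vehicle treated cultures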
# measurement-conditions: S. cerevisiae cln2 rad14 strain, at 50.0 µM
About 79,000 compounds went through this panel and 15% of them were active in at least one assay; those are over-represented in the sample as a whole. Active and inactive are the calls of the source. Cut-off read from the data, not from the text of the source: active = growth inhibition above about 70%; inactive = the rest.
// one of 1 (yes) (active), 0 (no) (inactive), no free text

Answered examples (3):
compound	assigned-class
CCCCCCCCCc1cccc(N2C(N)=NC(N)=NC2(C)C)c1	1 (yes)
NC(N)=Nc1ccc(Cc2ccc(N=C(N)N)cc2)cc1	0 (no)
FC(F)(F)c1nc2cc(SSc3cc4nc(C(F)(F)F)[nH]c4cc3Cl)c(Cl)cc2[nH]1	0 (no)

**Query** Test call for this compound, please: CC(=O)Nc1ccc2c(c1)Cc1cccc(F)c1-2
**Result** 0 (no)

**Query** Test call for this compound, please: CC1=C2CCC3C(CCC4(C)C(C(C)CCCC(C)C)CCC34)C2(C)CCC1=O (stereo unspecified)
**Result** 0 (no)

**Query** Test call for this compound, please: O=C(Cc1ccccc1)OC(C(=O)c1ccccc1)c1ccccc1 (stereo unspecified)
**Result** 0 (no)

====

# experiment-description: NCI Yeast Anticancer Drug Screen. Data for the rad50 strain (AID 155);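 also: 0% = growth of vehicle-only cultures of the same strain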
# measurement-conditions: S. cerevisiae rad50 strain growth inhibition; at 50.0 µM (retest, dose inferred, filed as 5.0); hits give high values
This is part of a sample that, as a whole, favours compounds with a hit. Of some 79,000 tested, about 15% had one in any assay.
Decide using growth inhibition: a value greater than or equal to 10% is 1, a smaller one is -1.

Answered examples (4):
compound	assigned-class
Clc1ccccc1/C=C/c1ccnc2ccccc12	1
Oc1cc(-[n+]2ccccc2)c(O)c2ccccc12	1
O=c1[nH]ncc(SCc2ccccc2)c1SCc1ccccc1	1
CCOC(=O)C1=C(Nc2ccc(Br)cc2)OC/C1=N\NC(=O)c1ccccc1O	1

**Query** growth inhibition >= 10% for CCCCN(CCO)CC(O)Cn1cnc2c(N)ncnc21 (stereo not given) (tested in a mixture with another compound) ?
**Result** -1

**Query** growth inhibition >= 10% for CSC(=Nc1ccccc1)NC(=O)Nc1ccc(Cl)cc1 ?
**Result** -1

====

# experiment-description: NCI Yeast Anticancer Drug Screen. Data for the bub3 strain (AID 167)
# measurement-conditions: S. cerevisiae bub3 mutant strain, at 50.0 µM (retest, dose inferred, filed as 5.0), hits give high values
This is part of a sample that, as a whole, favours compounds with a hit. Of some 79,000 tested, about 15% had one in any assay.
Recorded growth inhibition for the following compounds
Numbers only; they are read as %.

Examples with answers:
compound	unit-tag	growth inhibition
CCOC(=O)OC(=S)N(C1CCCCC1)C1CCCCC1	%	77
CC(C)C1=CC2=CCC3C(C)(C(=O)O)CCCC3(C)C2CC1 (stereo unspecified) (tested in a mixture with another compound)	%	88
COc1ccc2c(c1)[n+]([O-])c(C(N)=O)c(N)[n+]2[O-]	%	99
CN1CCCCC1c1cc2c3ccccc3ccn2c1-c1ccccc1 (stereo unspecified)	%	96

**Query** What does the record list as growth inhibition for Cc1cc2c(=O)[nH]c(N)nc2nc1C ?
**Result** 3

**Query** What does the record list as growth inhibition for Cc1c(-c2ccc(C(=N)N)cc2)oc(-c2ccc(C(=N)N)cc2)c1C ?
**Result** 99

**Query** What does the record list as growth inhibition for Nc1ncnc2c1c(-c1ccccc1)cn2-c1ccc(Br)cc1 ?
**Result** 37

**Query** What does the record list as growth inhibition for Cc1ccc(N=C(N)Nc2ccc(C)cn2)nc1 ?
**Result** 70

**Query** What does the record list as growth inhibition for COC(=O)C(=C(c1ccccc1)c1ccccc1)c1ccccc1 ?
**Result** -3

**Query** What does the record list as growth inhibition for ON(Cc1ccccc1)C(=S)c1ccccc1 ?
**Result** 98

**Query** What does the record list as growth inhibition for CCCCC(CCc1ccccc1[N+](=O)[O-])(C(C)=O)C(=O)OCC (stereo unspecified) ?
**Result** 38
